Test system: K4 kissing-loop RNA reporter
Test: apparent KD of K4 kissing-loop reporter; higher = weaker reporter binding
Conditions: Eterna round: R107; input ligand: theophylline 20 uM
QUANTITY NAME: apparent KD of K4 kissing-loop reporter (nM)
Quick reminder: number only, in nM, skip the unit.

SEQUENCE CODE: AGAGUUAAUUAGUCUUUUUUCACAUUAAGUCAGGAUAUCGUAUUUUCGAGAAGGGACACAUGCUAGUGAUGUUAGCUAUUUCUCA [JR_Nu3_ExcFMNA_Sub020]
apparent KD of K4 kissing-loop reporter / nM: 114

# apparent KD of K4 kissing-loop reporter lookup, item GGCAGUGAUGUUGCCAGUGGCAGAUGCGAAGGAGCGCGGUGAGACGCAGGUAGGUCGCGCAUUGAAAUUGCUGUCACUAGAAUGC [whbob_Ex_Arginine_A_2t127]
305

Continue with AAUGAUGAUUGACACAUUUACUAAAAGGAAGGAGCGGCGAAGUAGCCAGGUAGGUCGCCUUAUAGCAGUGAUGUUGCUAUUUGUU [JR_Nu_ExcArginiA_Sub027]
105

Continue with AAUUUAUUAACUGAUACCAGACUUAAUUAAUUGUAAAUUACUAGUGAUGUUAGUGAUUCUGUCCCUUGGCAGCAGUAUUUAUUAA [JR_ExcTheophyB_Sub011]
139

Continue with UUUUAAUGCAGUGAUGUUGCUAAUAAAACAGAGGAUAUGCAUGGAAGCAGAAGGCUGAUAUAUUAUACUUUAAUAUAUUAUAUUU [JR_SSFMNA_Sub011]
188

Continue with AACUGUCAAGGACAACAUUACUGAGGUGAUACCAGCAUCGAAAGAUGCCCUUGGCAGCACCGACUUGCAGUGAUGUUGCAAGUAA [BrourdMod 11 - Jieux - Exclusion - Theophylline A]
322

====

# apparent KD of MS2 coat protein values compiled below
Test system: MS2 coat protein
Assay: apparent KD of MS2 coat protein; designed switch direction (-1 OFF switch, 1 ON switch): 1; higher = weaker reporter binding
Details: input ligand: none
Quick reminder: number only, in nM, skip the unit.

// known answers, use as guide
SEQUENCE CODE: GCGAGCGUACUUGCUACAUGAGGAUCACCCAUGUUUAUUGGACAGGAUAUGGUACCGUUUCGGUACCAGAAGGGUUCAUCAUGU [JL SSNG3 3.70] (Eterna round: R96, puzzle: Same State NG 3)
apparent KD of MS2 coat protein / nM: 547
//
SEQUENCE CODE: AUAGUUGCCGAAGGAUAUGAUGAGGAUCACCCAUCAGAAGGUUGGCUAUUGGGUGGACAUGAGGAUCACCCGUGUUCUUUGGUA (Eterna round: R96, puzzle: Same State NG 1)
apparent KD of MS2 coat protein / nM: 82.1

# apparent KD of MS2 coat protein lookup, item AGCUAUUAAUCAGGAUAUAGUGACAUGAGGAUCACCCAUGUAUUGAUGAUUAAAUGUGGUCACCGCUAGAAGGGAUUACUAACA [SameState NG2 #47] (Eterna round: R96, puzzle: Same State NG 2)
30.1

====

Test system: MS2 coat protein
Test: apparent KD of MS2 coat protein; higher = weaker reporter binding
Settings: Eterna round: R107; input ligand: tryptophan 2.4 mM
QUANTITY NAME: apparent KD of MS2 coat protein (nM)
Quick reminder: number only, in nM, skip the unit.

// known answers, use as guide
SEQUENCE CODE: UGACAUUGCUCAGAUACCAGACGUGAGGAUCACCCACGUGCCAACAUGAGGAUCACCCAUGUCCCUUGGCAGCUGAGCAAUGUCU
apparent KD of MS2 coat protein [nM]: 15.5
--
SEQUENCE CODE: GUAUUUAUAUGAAGGAGCGUCGAAAAUGGGUAAACAUGAGGAUCACCCAUGUAAAGGGAACGACAGGUAGGUCGCAUAUGGAUAC [AstromonsSSArgB#25]
apparent KD of MS2 coat protein [nM]: 239
--
SEQUENCE CODE: ACAUGAGGAUCACCCAUGUAACGUCUUGAUACCAGACGAGAAGUAGUCCCUUGGCAGCAAAUACGUGAGGGUCACACAUGUGUAA [vvvmullin]
apparent KD of MS2 coat protein [nM]: 22.1
--
SEQUENCE CODE: GUAAGACAUGAGGAUCACCCAUGUGUCGAUACCAGCCCUGCCUCUGGCCCUUGGCAGCGACUCGCACACCUCGCACUGCACAAGU [theeternabot_sameState_MS2_Theo_A_13]
apparent KD of MS2 coat protein [nM]: 49
--
SEQUENCE CODE: AUUUAUUGUCGUGAUACCAGACAUACAUGAGGAUCACCCAUGUUAAGUAACAUUUUUUAGGUCCCUUGGCAGCACUUUUUAAUUA [JR_Nu_SSTheophyB_Sub018]
apparent KD of MS2 coat protein [nM]: 25.4

Next sequence, apparent KD of MS2 coat protein to be filled in.
# apparent KD of MS2 coat protein lookup, item UCGUGAGUUUCGGAUACCAGUGUGGUCGAUACAUGAGGAUCACCCAUGUUAGAGGAGGUACACCCUUGGCAGCCGGCUGUGGCGG [hlhmullin]
25

====

Tested on: MS2 coat protein
Test: apparent KD of MS2 coat protein; designed switch direction (-1 OFF switch, 1 ON switch): 1; higher = weaker reporter binding
Settings: input ligand: none
Kindly return T if reported apparent KD of MS2 coat protein is no lower than 50 nM; return F if it is lower.

Examples from the recorded data:
SEQUENCE CODE: AAAAUGGCAUGUUACAUGAGGAUCACCCAUGUGCCGUCAACUGAGGAUAUGGUGCUGUAGAAGAAUCAGAAGGUAGUCAUUUAA [AK SSNG3-V2-27] (Eterna round: R96, puzzle: Same State NG 3)
CLASS NAME: F
//
SEQUENCE CODE: GUAGCAUACCGAGGAUAUUCAUAAUACAUGAGGAUCACCCAUGUUAAUAAUAGGCGAAAGCCUUGGGAGAAGGCGGAAUGCUAC [Xeonanis - 20 Mod69] (Eterna round: R96, puzzle: Same State NG 2)
CLASS NAME: F
//
SEQUENCE CODE: UAAAUAAUGUAAGGAUAUACAUGAGGAAUUCUCGUAGAAGGUACAUGACAUGAGGAUCACCCAUGUAUCGCUCAGAAGAGCGUA [Mat - Same State NG 1 - JL mod - D28] (Eterna round: R96, puzzle: Same State NG 1)
CLASS NAME: T
//
SEQUENCE CODE: GCUCGACGUACGGCCUACAUGAGGAUCACCCAUGUGACUGGGCAGGAUAUCUAAAUGCAGAAUGUAGAGAAGGGCCCGUCGAGC [SameState NG3 #50] (Eterna round: R96, puzzle: Same State NG 3)
CLASS NAME: T

Pending sequence:
Would you say GCUCGACGUAUUGUCUACAUGAGGAUCACCCAUGUAGGUGCGAAGGAUAUCUACGUGUUUCAUGUAGAGAAGGUCGUGUCGAGC [SameState NG3 #93] (Eterna round: R96, puzzle: Same State NG 3) shows apparent KD of MS2 coat protein at minimum 50 nM?
F

====

# apparent KD of K4 kissing-loop reporter values compiled below
Tested on: K4 kissing-loop RNA reporter;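 further: bound reporter read as fluorescence of individual clusters on recovered sequencing chips by microscopy, with normalized cluster intensities fitted with a binding model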
Test: apparent KD of K4 kissing-loop reporter; higher = weaker reporter binding
Settings: Eterna round: R107; input ligand: tryptophan 2.4 mM
Quick reminder: number only, in nM, skip the unit.

// known answers, use as guide
SEQUENCE CODE: AGCGAGUGAUGUUCGCUGAUCAUGAGAAGUUAGGAUAUAUACUUGCAUAGAAGGAACUAUUUCAUGACAUUAGAGGCAGUAGUUC [FMN A SS t7]
apparent KD of K4 kissing-loop reporter, nM: 125
--
SEQUENCE CODE: GGUUCCUCAGUGAUGUUGAGGUGACCUCGGCAGGAUAUAGGCAUUACUAGAAGGGCCAAAUGAACCCUGUCCAGCGGCACAGGGA [Arleorbile]
apparent KD of K4 kissing-loop reporter, nM: 252
--
SEQUENCE CODE: UUAGCUCUAUAGAGCAAGAGGUAUACUGAUACCAGAGGCUAUAGCCUCCCUUGGCAGCGGAACGAGUGAUGUUCGAAACCUCAUU [AK5 SS Theophylline A]
apparent KD of K4 kissing-loop reporter, nM: 526
--
SEQUENCE CODE: GUUACGCAUGGAAGGAGCGCACUCCGAUUGGGCGACGCAGUGAUGUUGUGGUUCGUUCGAAUGCAGGUAGGUCGCCAUGUGUAAC [Ex Arginine B K4 21]
apparent KD of K4 kissing-loop reporter, nM: 192
--
SEQUENCE CODE: GGAGGGAUCUCGGCCGCCACUCAUAAGAAAUGGGCCUCAGAGAUAUAGUGAUGUUAUGUAAAGAAGAGGACCGGGAGAAAGAAGG [ExTryptoB.Db]
apparent KD of K4 kissing-loop reporter, nM: 144

Next sequence, apparent KD of K4 kissing-loop reporter to be filled in.
# apparent KD of K4 kissing-loop reporter lookup, item GUAAUCUUGCUCGAGUGAUGUUCGAGCGAAGGAGCGCGAGAAAUCGCAGGUAGGUCGCGCUCGAAAUAUGAGCGAACAAUUAUUA [Arg A Ex t2b]
230
